Tested system: Estrogen Receptor (ERα) in MCF-7 human ductal carcinoma breast cell line (Homo sapiens, UniProt P03372)
Construct: endogenous in cells; host or cells: MCF-7
Sequence (P03372 whole entry): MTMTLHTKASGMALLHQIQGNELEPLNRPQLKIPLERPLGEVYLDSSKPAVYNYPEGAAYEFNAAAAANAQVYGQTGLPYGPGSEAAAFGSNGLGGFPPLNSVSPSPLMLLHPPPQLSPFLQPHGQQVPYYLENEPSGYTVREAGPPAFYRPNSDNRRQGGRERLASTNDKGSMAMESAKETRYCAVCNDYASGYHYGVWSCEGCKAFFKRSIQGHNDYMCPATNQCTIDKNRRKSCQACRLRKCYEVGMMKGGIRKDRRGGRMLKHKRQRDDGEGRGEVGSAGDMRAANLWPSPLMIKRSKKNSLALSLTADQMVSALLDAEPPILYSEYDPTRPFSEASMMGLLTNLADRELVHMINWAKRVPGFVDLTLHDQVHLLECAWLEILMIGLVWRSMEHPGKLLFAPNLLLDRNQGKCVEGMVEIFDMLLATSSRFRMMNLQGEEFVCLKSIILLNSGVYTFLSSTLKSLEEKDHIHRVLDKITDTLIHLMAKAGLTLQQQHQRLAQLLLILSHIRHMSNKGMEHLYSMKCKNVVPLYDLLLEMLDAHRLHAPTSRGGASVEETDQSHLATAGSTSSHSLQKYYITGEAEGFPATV
Test summary: MCF-7 ER degradation assay (cell based immuno-fluorescence)
Condition summary: MCF-7 cells, 0.3 μM; ER degradation by fulvestrant at 0.3 μM is defined as 100%
Readout: ER degradation ≥ 90% at 0.3 μM

Solved entries:
Cc1ncsc1-c1ccc(CNC(=O)[C@@H]2C[C@@H](O)CN2C(=O)[C@@H](NC(=O)COCCOCCOCC(=O)Nc2ccc([C@@H]3c4[nH]c5ccccc5c4C[C@@H](C)N3CC(C)(C)F)cc2)C(C)(C)C)cc1    •
Cc1ncsc1-c1ccc(CNC(=O)[C@@H]2C[C@@H](O)CN2C(=O)[C@@H](NC(=O)C2(OCCCCCCOc3cc(F)c([C@@H]4c5[nH]c6ccccc6c5C[C@@H](C)N4CC(C)(C)F)c(F)c3)CC2)C(C)(C)C)cc1    •
Cc1ncsc1-c1ccc(CNC(=O)[C@@H]2C[C@@H](O)CN2C(=O)[C@@H](NC(=O)C(F)(F)OCCCCCCOc2cc(F)c([C@@H]3c4[nH]c5ccccc5c4C[C@@H](C)N3CC(C)(C)F)c(F)c2)C(C)(C)C)cc1    •
Cc1ncsc1-c1ccc(CNC(=O)[C@@H]2C[C@@H](O)CN2C(=O)[C@@H](NC(=O)CCCc2ccc(COc3cc(F)c([C@@H]4c5[nH]c6ccccc6c5C[C@@H](C)N4CC(C)(C)F)c(F)c3)nc2)C(C)(C)C)cc1    •
Cc1ncsc1-c1ccc(CNC(=O)[C@@H]2C[C@@H](O)CN2C(=O)[C@@H](NC(=O)COCCO[C@H](C)[C@@H](C)OCCOc2cc(F)c([C@@H]3c4[nH]c5ccccc5c4C[C@@H](C)N3CC(C)(C)F)c(F)c2)C(C)(C)C)cc1    ••

Problem: Looking for the measured ER degradation ≥ 90% at 0.3 μM of `Cc1ncsc1-c1ccc(CNC(=O)[C@@H]2C[C@@H](O)CN2C(=O)[C@@H](NC(=O)CCCCCOCCCCOc2cc(F)c([C@@H]3c4[nH]c5ccccc5c4C[C@@H](C)N3CC(C)(C)F)c(F)c2)C(C)(C)C)cc1` , can you help?
Solution: ••

Problem: Looking for the measured ER degradation ≥ 90% at 0.3 μM of `Cc1ncsc1-c1ccc([C@H](C)NC(=O)[C@@H]2C[C@@H](O)CN2C(=O)[C@@H](NC(=O)COCCCCCOc2cc(F)c([C@@H]3c4[nH]c5ccccc5c4C[C@@H](C)N3CC(C)(C)F)c(F)c2)C(C)(C)C)cc1` , can you help?
Solution: •

Problem: Looking for the measured ER degradation ≥ 90% at 0.3 μM of `Cc1ncsc1-c1ccc(CNC(=O)[C@@H]2C[C@@H](O)CN2C(=O)[C@@H](NC(=O)COCCOCCNC(=O)/C=C/c2cc(F)c([C@@H]3c4[nH]c5ccccc5c4C[C@@H](C)N3CC(C)(C)F)c(F)c2)C(C)(C)C)cc1` , can you help?
Solution: •

----------
Tested system: Estrogen Receptor (ERα) in MCF-7 human ductal carcinoma breast cell line (Homo sapiens)
Construct: endogenous in cells; host or cells: MCF-7
Test summary: MCF-7 ER degradation assay (cell based immuno-fluorescence)
Condition summary: MCF-7 cells, 0.3 μM; ER degradation by fulvestrant at 0.3 μM is defined as 100%
Readout: ER degradation ≥ 90% at 0.3 μM

Solved entries:
Cc1ncsc1-c1ccc([C@H](C)NC(=O)[C@@H]2C[C@@H](O)CN2C(=O)[C@@H](NC(=O)COCCOCCCCCOc2cc(F)c([C@@H]3c4[nH]c5ccccc5c4C[C@@H](C)N3CC(F)(F)F)c(F)c2)C(C)(C)C)cc1    ••
Cc1ncsc1-c1ccc(CNC(=O)[C@@H]2C[C@@H](O)CN2C(=O)[C@@H](NC(=O)COCc2ccc(COc3cc(F)c([C@@H]4c5[nH]c6ccccc6c5C[C@@H](C)N4CC(C)(C)F)c(F)c3)nc2)C(C)(C)C)cc1    ••
Cc1ncsc1-c1ccc(CNC(=O)[C@@H]2C[C@@H](O)CN2C(=O)[C@@H](NC(=O)COCCCOCCCCCOc2cc(F)c([C@@H]3c4[nH]c5ccccc5c4C[C@@H](C)N3CC(C)(C)F)c(F)c2)C(C)(C)C)cc1    ••
Cc1ncsc1-c1ccc(CNC(=O)[C@@H]2C[C@@H](O)CN2C(=O)[C@@H](NC(=O)COCCCOCCCCOc2cc(F)c([C@@H]3c4[nH]c5ccccc5c4C[C@@H](C)N3CC(C)(C)F)c(F)c2)C(C)(C)C)cc1    ••
Cc1ncsc1-c1ccc(CNC(=O)[C@@H]2C[C@@H](O)CN2C(=O)[C@@H](NC(=O)COCCCCCCCCOc2cc(F)c([C@@H]3c4[nH]c5ccccc5c4C[C@@H](C)N3CC(C)(C)F)c(F)c2)C(C)(C)C)cc1    ••
Cc1ncsc1-c1ccc(CNC(=O)[C@@H]2C[C@@H](O)CN2C(=O)[C@@H](NC(=O)COCc2ccnc(COc3cc(F)c([C@@H]4c5[nH]c6ccccc6c5C[C@@H](C)N4CC(C)(C)F)c(F)c3)c2)C(C)(C)C)cc1    •

Problem: Looking for the measured ER degradation ≥ 90% at 0.3 μM of `Cc1ncsc1-c1ccc(CNC(=O)[C@@H]2C[C@@H](O)CN2C(=O)[C@@H](NC(=O)COCCCCCCCOc2cc(F)c([C@@H]3c4[nH]c5ccccc5c4C[C@@H](C)N3CC(F)(F)CO)c(F)c2)C(C)(C)C)cc1` , can you help?
Solution: ••

Problem: Looking for the measured ER degradation ≥ 90% at 0.3 μM of `Cc1ncsc1-c1ccc(CNC(=O)[C@@H]2C[C@@H](O)CN2C(=O)[C@@H](NC(=O)COCCCCCCOc2ccc([C@@H]3c4[nH]c5ccccc5c4C[C@@H](C)N3CC(F)F)nc2)C(C)(C)C)cc1` , can you help?
Solution: ••

Problem: Looking for the measured ER degradation ≥ 90% at 0.3 μM of `Cc1ncsc1-c1ccc(CNC(=O)[C@@H]2C[C@@H](O)CN2C(=O)[C@@H](NC(=O)COCCCCOc2cc(F)c([C@@H]3c4[nH]c5ccccc5c4C[C@@H](C)N3CC(C)(C)F)c(F)c2)C(C)(C)C)cc1` , can you help?
Solution: •

Problem: Looking for the measured ER degradation ≥ 90% at 0.3 μM of `Cc1ncsc1-c1ccc(CNC(=O)[C@@H]2C[C@@H](O)CN2C(=O)[C@@H](NC(=O)COCCOCCOCCNC(=O)/C=C/c2cc(F)c([C@@H]3c4[nH]c5ccccc5c4C[C@@H](C)N3CC(C)(C)F)c(F)c2)C(C)(C)C)cc1` , can you help?
Solution: ••

Problem: Looking for the measured ER degradation ≥ 90% at 0.3 μM of `Cc1ncsc1-c1ccc(CNC(=O)[C@@H]2C[C@@H](O)CN2C(=O)[C@@H](NC(=O)COCCOCCOCCOc2cc(F)c([C@@H]3c4[nH]c5ccccc5c4C[C@@H](C)N3CC(F)(F)CO)c(F)c2)C(C)(C)C)cc1` , can you help?
Solution: •

Problem: Looking for the measured ER degradation ≥ 90% at 0.3 μM of `Cc1ncsc1-c1ccc(CNC(=O)[C@@H]2C[C@@H](O)CN2C(=O)[C@@H](NC(=O)COCCOCCCCOc2cc(F)c([C@@H]3c4[nH]c5ccccc5c4C[C@@H](C)N3CC(C)(C)F)c(F)c2)C(C)(C)C)cc1` , can you help?
Solution: ••

Problem: Looking for the measured ER degradation ≥ 90% at 0.3 μM of `Cc1ncsc1-c1ccc(CNC(=O)[C@@H]2C[C@@H](O)CN2C(=O)[C@@H](NC(=O)COCCC(C)(C)CCOc2cc(F)c([C@@H]3c4[nH]c5ccccc5c4C[C@@H](C)N3CC(C)(C)F)c(F)c2)C(C)(C)C)cc1` , can you help?
Solution: ••

Problem: Looking for the measured ER degradation ≥ 90% at 0.3 μM of `Cc1ncsc1-c1ccc(CNC(=O)[C@@H]2C[C@@H](O)CN2C(=O)[C@@H](NC(=O)CCCCNC(=O)/C=C/c2cc(F)c([C@@H]3c4[nH]c5ccccc5c4C[C@@H](C)N3CC(C)(C)F)c(F)c2)C(C)(C)C)cc1` , can you help?
Solution: •

Problem: Looking for the measured ER degradation ≥ 90% at 0.3 μM of `Cc1ncsc1-c1ccc(CNC(=O)[C@@H]2C[C@@H](O)CN2C(=O)[C@@H](NC(=O)COCCCCCCCCOc2ccc([C@@H]3c4[nH]c5ccccc5c4C[C@@H](C)N3CC(F)F)nc2)C(C)(C)C)cc1` , can you help?
Solution: •

Problem: Looking for the measured ER degradation ≥ 90% at 0.3 μM of `Cc1ncsc1-c1ccc(CNC(=O)[C@@H]2C[C@@H](O)CN2C(=O)[C@@H](NC(=O)CNCCCCCCCCOc2cc(F)c([C@@H]3c4[nH]c5ccccc5c4C[C@@H](C)N3CC(C)(C)F)c(F)c2)C(C)(C)C)cc1` , can you help?
Solution: •

Problem: Looking for the measured ER degradation ≥ 90% at 0.3 μM of `Cc1ncsc1-c1ccc(CNC(=O)[C@@H]2C[C@@H](O)CN2C(=O)[C@@H](NC(=O)COCCOCCCCCOc2cc(F)c([C@@H]3c4[nH]c5ccccc5c4C[C@@H](C)N3CC(C)(F)F)c(F)c2)C(C)(C)C)cc1` , can you help?
Solution: ••
